# TARGET_SYSTEM: T1, recombinant N-terminal extracellular domain of the human PTH1R receptor (human, UniProt Q03431 27-188, limits assumed)
# T1 construct: domain: N-terminal extracellular domain; Bought reagent; also called N-ECD PTH1R; PTH1R N-terminal ECD
# T1 sequence (looked up): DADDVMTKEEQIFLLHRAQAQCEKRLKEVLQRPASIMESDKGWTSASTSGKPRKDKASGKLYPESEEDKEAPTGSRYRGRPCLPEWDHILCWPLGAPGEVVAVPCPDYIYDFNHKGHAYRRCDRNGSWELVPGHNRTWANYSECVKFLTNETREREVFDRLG
# EXPERIMENT_NOTES: SPR, IgG captured, ECD injected
Measured koff of individual entries
Report the value in s⁻¹ with no unit label.

{"columns": ["BINDER", "OBSERVED"],
 "data": [
  ["XPA.85.343 (antibody, V domains shown, Light-chain-shuffled variant of XPA.85.012) VH: QMQLVQSGAEVKKPGSSVKVSCKASGGTFSSYAISWVRQAPGQGLEWMGGIIPIFGTANYAQKFQGRVTITADESTSTAYMELSSLRSEDTAVYYCARGYVVARLWGQGTLVTVSS VL: DVVMTQTPLSLSVTPGQPASISCKSSQSLLHIDGRTYLYWYLQKAGQPPQLLIYEVSNRFSGVPDRFSGSGSGTDFTLKISRVEAEDVGVYYCMQSIHFPLTFGGGTKLEIK", 0.00045]
]}

We now examine a further binder.
-- ask Determine from records and report koff for XPA.85.327 (antibody, V domains shown, Light-chain-shuffled variant of XPA.85.012; also called XPA.327) VH: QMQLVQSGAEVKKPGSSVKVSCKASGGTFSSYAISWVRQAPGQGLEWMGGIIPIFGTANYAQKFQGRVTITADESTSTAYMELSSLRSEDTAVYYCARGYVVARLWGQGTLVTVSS VL: DIVMTQTPLSLSVTPGQPASITCKSSQSLLHIDGNTYLYWYLQRPGQPPQLLIYEISNRFSGVPDRFSGSGSGTDFTLKISRVEAEDVGVYYCMQSLHFPITFGQGTRLEIK
-- reply 0.00011
